- protocol: Plasma pharmacokinetic profile of cannabidiol after a single topical dose (In-life Study 1901002-01, LC-MS/MS)
- Format: in vivo, CD-1 mice
- condition description: CD-1, topical or ocular; Group 4: KBM.CBD.011 Formulation C 2.5% CBD, single topical dose 0.1 mL, mean dose 75.76 mg/kg, mouse plasma
measured metric: half-life (h)

- input smiles: "C=C(C)[C@@H]1CCC(C)=C[C@H]1c1c(O)cc(CCCCC)cc1O"
  measured metric: "half-life"
  measured number: 1.92

---

- protocol: Plasma pharmacokinetic profile of cannabidiol after a single topical dose (In-life Study 1901002-01, LC-MS/MS)
- Format: in vivo, CD-1 mice
- condition description: CD-1, topical or ocular; Group 3: KBM.CBD.010 Formulation C 5% CBD, single topical dose 0.1 mL, mean dose 155.24 mg/kg, mouse plasma

- molecule: "C=C(C)[C@@H]1CCC(C)=C[C@H]1c1c(O)cc(CCCCC)cc1O [Cannabidiol]"
  AUC(0-inf) (ng·h/mL): 3530
